assayRemarks: NCI Yeast Anticancer Drug Screen. Data for the bub3 strain (AID 167)
conditionSummary: S. cerevisiae bub3 mutant strain, at 50.0 µM
The panel holds about 79,000 compounds, 15% with a hit somewhere; the sample as a whole holds those more often. Calls of active or inactive are those of the source. Rule as the data show it: active = growth inhibition above about 70%; inactive = the rest.
Outcomes: label 1 = active, label 0 = inactive

>  <compound>
COc1ccccc1NC(=O)C(=O)C1C(=O)Nc2ccccc2S1=O (configuration not stated)

>  <assignedClass>
label 0

$$$$
>  <compound>
c1ccc(CCCCc2ccccn2)cc1

>  <assignedClass>
label 0

$$$$
>  <compound>
NC(=O)c1ccc(Cl)cc1

>  <assignedClass>
label 0

$$$$
>  <compound>
COc1ccc(NC(C)=O)c(C(O)CCNC(C)=O)c1 (configuration not stated)

>  <assignedClass>
label 0

$$$$
>  <compound>
NC(=S)/N=C/C1=C(O)CCCC1=O

>  <assignedClass>
label 0

$$$$
>  <compound>
Cn1c(=O)c2c(nc(C(=N)SCC(=O)O)n2C)n(C)c1=O

>  <assignedClass>
label 0

$$$$
>  <compound>
CCOC(=O)c1[nH]c(CC(=O)O)c(C(=O)OCC)c1C

>  <assignedClass>
label 0

$$$$
>  <compound>
O=C(COc1ccc(Cl)cc1)Oc1c(Cl)cc(Cl)cc1Cl

>  <assignedClass>
label 1

$$$$
>  <compound>
CC(=O)NC1CC(=O)N(c2ccccc2)C1=O (configuration not stated)

>  <assignedClass>
label 0

$$$$
>  <compound>
CSc1cc(=O)n(C2OC(CO)C(O)C2O)c(=O)[nH]1 (configuration not stated)

>  <assignedClass>
label 0

$$$$
>  <compound>
CCC(C)(C)C1CCCCC1OC(C)=O (configuration not stated)

>  <assignedClass>
label 0

$$$$
>  <compound>
CC(=O)OC1CC2CC1C1CC=CC21 (configuration not stated)

>  <assignedClass>
label 0

$$$$
>  <compound>
O=C1CCCCCCCCC1=O

>  <assignedClass>
label 0

$$$$
>  <compound>
OC1OC(CCl)C(Cl)C(O)C1O (configuration not stated)

>  <assignedClass>
label 0

$$$$
>  <compound>
O=C(Nc1cccc(Cl)c1)Oc1cccnc1

>  <assignedClass>
label 0

$$$$
>  <compound>
O=C(CC1(O)C(=O)Nc2ccccc21)c1ccc(O)cc1O (configuration not stated)

>  <assignedClass>
label 0

$$$$
>  <compound>
CCOc1ccc2ccccc2c1

>  <assignedClass>
label 0

$$$$
>  <compound>
CCN(Cc1cc(Cl)cc(C)c1O)Cc1c(O)ccc2ccccc12

>  <assignedClass>
label 1

$$$$
>  <compound>
CN(C)S(=O)(=O)c1ccc(NC(=O)OC(C)(c2ccccc2)C2CCCCC2)cc1 (configuration not stated)

>  <assignedClass>
label 0

$$$$
>  <compound>
O=S(=O)(c1ccccc1)N1CCC1c1ccccc1 (configuration not stated)

>  <assignedClass>
label 0

$$$$
>  <compound>
CCOC(=O)N1Cc2cc3ccc(OC)cc3nc2C1

>  <assignedClass>
label 0

$$$$
>  <compound>
CCCCCNC(=O)c1ccc(C)cc1

>  <assignedClass>
label 0

$$$$
>  <compound>
O=C1OCC=C1COC1OC(CO)C(O)C(O)C1O (configuration not stated)

>  <assignedClass>
label 0

$$$$
>  <compound>
O=C(N/N=C/C1CCCCC1)C(=O)N/N=C/C1CCCCC1

>  <assignedClass>
label 0

$$$$
>  <compound>
CCOC(=O)/C(=N/O)c1ccccn1

>  <assignedClass>
label 0

$$$$
>  <compound>
NCCCC(NC(=O)CCCCCCCCN=C(N)N)C(O)CCCCCCCCN=C(N)N (configuration not stated)

>  <assignedClass>
label 0

$$$$
>  <compound>
N#CC(CC(=O)c1ccccc1)c1ccccc1Cl (configuration not stated)

>  <assignedClass>
label 0

$$$$
>  <compound>
O=C(CNc1c(Cl)cccc1Cl)NC1C=Cc2ccc(S(=O)(=O)Nc3c(Cl)cccc3Cl)cc2C1=O (configuration not stated)

>  <assignedClass>
label 0

$$$$
>  <compound>
CCCCCCCCCCCCCCC(=O)OCCN(C)C

>  <assignedClass>
label 0

$$$$
>  <compound>
c1ccc(NCNC2Nc3ccccc3N2)cc1

>  <assignedClass>
label 0

$$$$
>  <compound>
O=C1CSC(c2c(F)cccc2Cl)N1c1nncs1 (configuration not stated)

>  <assignedClass>
label 0

$$$$
>  <compound>
Cc1c(O)cc(O)c(C=O)c1C

>  <assignedClass>
label 0

$$$$
>  <compound>
COc1cc(C)c(O)c(C)c1C

>  <assignedClass>
label 0

$$$$
>  <compound>
O=c1n(CCCN2CCN(c3cccc(Cl)c3)CC2)nc2ccccn12

>  <assignedClass>
label 0

$$$$
>  <compound>
Cc1ccc(CN(C)N=Nc2ccc(C#N)cc2)cc1

>  <assignedClass>
label 0

$$$$
>  <compound>
C=C(C)C(=O)OC1C(C(C)CCCO)=C(CO)CC2OC(=O)C(=C)C21 (configuration not stated)

>  <assignedClass>
label 0

$$$$
>  <compound>
NC(CSSCC(N)Cc1ccccc1)Cc1ccccc1 (configuration not stated)

>  <assignedClass>
label 0

$$$$
>  <compound>
NC(N)=NCCCCC(=O)Nc1ccc(S(N)(=O)=O)cc1

>  <assignedClass>
label 0

$$$$
>  <compound>
Cc1nc2ccccc2s1

>  <assignedClass>
label 0

$$$$
>  <compound>
c1csc(-c2nccc3ccccc23)c1

>  <assignedClass>
label 0

$$$$
>  <compound>
COC(=O)/C(C#N)=C/Sc1ccccc1

>  <assignedClass>
label 0

$$$$
>  <compound>
Cc1ccc2c(c1)nc(-c1ccccn1)n2CCc1ccncc1

>  <assignedClass>
label 1

$$$$
>  <compound>
CC1(C)CN(CCC#N)C(c2ccc([N+](=O)[O-])cc2)O1 (configuration not stated)

>  <assignedClass>
label 0

$$$$
>  <compound>
NC(=O)c1csc([C@@H](O)Cc2ccccc2)n1

>  <assignedClass>
label 0

$$$$
>  <compound>
CCCCC(=O)NC1=CC(=O)c2ccccc2C1=O

>  <assignedClass>
label 0

$$$$
>  <compound>
CSC1=C(c2ccc(Cl)cc2)SC(N2CCCCC2)N1c1ccc([N+](=O)[O-])cc1 (configuration not stated)

>  <assignedClass>
label 0

$$$$
>  <compound>
CN(Cc1ccccc1)C(=O)Nc1ccc(F)c([N+](=O)[O-])c1

>  <assignedClass>
label 0

$$$$
>  <compound>
CC(C)=CC(=O)OC1C2C(C)C(=O)OC2C(O)C(C)C2C=CC(=O)C21C (configuration not stated)

>  <assignedClass>
label 0

$$$$
>  <compound>
O=S(=O)(O)ON=C1c2ccccc2-c2ccccc21

>  <assignedClass>
label 0

$$$$
>  <compound>
CCC(C(=O)NC(C)c1ccc(-c2ccccc2)cc1)c1ccccc1 (configuration not stated)

>  <assignedClass>
label 0

$$$$
>  <compound>
COc1cc(OC)c(C(C)=O)cc1OC

>  <assignedClass>
label 0

$$$$
>  <compound>
CSc1nc(NC2OCC(O)C(O)C2O)c(Cl)c(=O)[nH]1 (configuration not stated)

>  <assignedClass>
label 0

$$$$
